# run-description: High-throughput (HT) solubility determination
# Type: physicochemical
# condition-set: kinetic from dmso stock; FaSSIF pH 6.5, shaken 24 hours at 25° C.; read-out: pH 6.5 (FaSSIF) solubility
value-type: solubility kinetic at 24 h

Documented solubility kinetic at 24 h of `CCOC(=O)c1[nH]c2nc1-c1ccc(NC(=O)OC)cc1NC(=O)C(C)(C)CCC[C@@H]2c1ccc(-c2cc(Cl)cnc2OC(F)F)c[n+]1[O-]` : 33 µM

compound `CCOC(=O)c1[nH]c2nc1-c1ccc(NC(=O)OC)cc1NC(=O)C(C)(C)CCC[C@@H]2c1ccc(-c2cccc(Cl)c2F)c[n+]1[O-]` , solubility kinetic at 24 h observed: 51 µM

The recorded solubility kinetic at 24 h for entry `CCOC(=O)c1[nH]c2nc1-c1ccc(NC(=O)OC)cc1NC(=O)C(C)(C)CCC[C@@H]2c1ccc(-c2cc(F)ccc2-n2cc(C(F)(F)F)cn2)c[n+]1[O-]` equals 39 µM

// `COC(=O)Nc1ccc2c(c1)NC(=O)C(C)(C)CCC[C@H](c1ccc(-c3cc(F)ccc3-n3cc(C(F)(F)F)cn3)c[n+]1[O-])c1nc-2c(C(=O)O)[nH]1` : solubility kinetic at 24 h value = 141 µM

For reference, reported solubility kinetic at 24 h for COC(=O)Nc1ccc2c(c1)NC(=O)C(C)(C)CCC[C@H](c1ccc(-c3cc(F)ccc3OC(F)F)c[n+]1[O-])c1nc-2c(C(=O)O)[nH]1.N (single isomer, unassigned) stands at 170 µM

###

Consider the following molecules; for each one, report its MRT.
# run-description: Dog pharmacokinetics (screening IV/PO or cassette IV)
# Assay type: in vivo
# condition-set: male; dog plasma, mean residence time
# Method: Plasma pharmacokinetic parameters for clearance, volume of distribution, half-life, mean residence time (MRT) and oral bioavailability were determined in dogs from oral administration and IV administration studies. 4 male dogs, typically weighing 8-12 kilograms, were fasted overnight prior to dosing. […] Plasma samples were extracted using protein precipitation and analyzed by liquid chromatography separation followed by mass spec detection (LCMS/MS), using a standard curve for each compound. […]
# number only, unit h dropped from output

Recorded MRT (molecule `CCOC(=O)c1[nH]c2nc1-c1ccc(NC(=O)OC)cc1NC(=O)C(C)(C)CCC[C@@H]2c1ccc(-c2cc(F)ccc2OC(F)F)c[n+]1[O-]` ): 6.1

The molecule listed as `CCOC(=O)c1[nH]c2nc1-c1ccc(NC(=O)OC)cc1NC(=O)C(C)(C)CCC[C@@H]2c1ccc(-c2cccc(Cl)c2F)c[n+]1[O-]` shows MRT equal to 7.2

Value of measured MRT for the entry `COC(=O)Nc1ccc2c(c1)NC(=O)C(C)(C)CCC[C@H](c1ccc(-c3cc(F)ccc3-n3cc(C(F)(F)F)cn3)c[n+]1[O-])c1nc-2c(C(=O)OC)[nH]1` : 8.9

Form field MRT, entry `CCOC(=O)c1[nH]c2nc1-c1ccc(NC(=O)OC)cc1NC(=O)C(C)(C)CCC[C@@H]2c1ccc(-c2cc(F)ccc2-n2cc(C(F)(F)F)cn2)c[n+]1[O-]` : 12

Value of measured MRT for the entry `CCOC(=O)c1[nH]c2nc1-c1ccc(NC(=O)OC)cc1NC(=O)C(C)(C)CCC[C@@H]2c1ccc(-c2cc(Cl)ccc2-n2cc(C(F)(F)F)cn2)c[n+]1[O-]` : 15

Query `CCOC(=O)c1[nH]c2nc1-c1ccc(NC(=O)OC)cc1NC(=O)C(C)(C)CCC[C@@H]2c1ccc(-c2cc(Cl)cnc2OC(F)F)c[n+]1[O-]` yields MRT of 9.9

# credit: patent US12497403B2
